Data credit: the supplement of paper PMC10567573

# MEASUREMENT_NOTES: protein stability index of a GFP-peptide fusion (GPS, HEK-293T) (PSI 1-6); higher = more stable;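 note: 24-mer peptide tiles fused after GFP, lentivirally expressed, FACS-sorted into six equal bins by GFP/DsRed ratio, decoded by Illumina sequencing, PSI is the read-weighted mean bin number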
# TEST_SETTINGS: treatment: DMSO; c terminus: a fixed tail appended
Tick satisfied if protein stability index is 4 or greater. Tick not satisfied if protein stability index is less than 4.

[[record]]
chain = "SAMALVKHSVLLSASRKSAEQLRI [WEE1]"
group = "not satisfied"


Determine whether this sequence has protein stability index no lower than 4: APAGASYNPSFEDHQTLLSAAHEV [NOP53] satisfied

###

# MEASUREMENT_NOTES: protein stability index of a GFP-peptide fusion (GPS, HEK-293T) (PSI 1-6); higher = more stable
# TEST_SETTINGS: treatment: MLN4924 1 uM, 8 h; c terminus: a fixed tail appended
READOUT_NAME: protein stability index
API note: the answer field is a bare number with no unit suffix.

Given the sequence ARFQDKQYSSHHTAEKRKRLGELF [CHGB] , write its reported protein stability index. 3.56

For the sequence MAREHAFNIGLPDNIVNCNEFLCT [ZNF277] , give its measured protein stability index value. 2.92

Using known records, supply protein stability index for ITWFKDFLPVDTSNNNGRIKQLRS [PTPRD] 2.96

Supply measured protein stability index of PPHKHVARPTEVLAGTQLLYAFFT [TRIB3] in your reply. 2.43

Fill in reported protein stability index for this entry: EYQVLLDVKARLEGEIATYRHLLE [KRT36] 2.53
